Below are pIC50 values recorded for Autotaxin enzyme (ATX) (Homo sapiens, UniProt Q13822).
pIC50: −log10 of the molar value.

What measured pIC50 goes with CC1CCN1C(=O)c1cnc(NCc2cc(OC(F)(F)F)cc(C(C)(C)C)c2)nc1 (centres unmarked) ?
6.00 to 7.00

What measured pIC50 goes with `CC(C)(O)C1CN(C(=O)c2cnc(NCc3cc(OC(F)(F)F)cc(C4CC4)c3)nc2)C1` ?
6.00 to 7.00

What measured pIC50 goes with `CC1(C)CCN1C(=O)c1cnc(NCc2cc(OC(F)(F)F)cc(C3CC3)c2)nc1` ?
> 7.00

What measured pIC50 goes with `COC[C@@H]1CCN1C(=O)c1cnc(NCc2cc(OC(F)(F)F)cc(C3CC3)c2)nc1` ?
> 7.00

What measured pIC50 goes with `O=C(c1cnc(NCc2cc(OC(F)(F)F)cc(C3CC3)c2)nc1)N1CCc2ccncc21` ?
> 7.00

What measured pIC50 goes with `O=C(c1cnc(NCc2cc(C3CC3)cc(C(F)(F)F)c2)nc1)N1CCC12COC2` ?
> 7.00

What measured pIC50 goes with `N#Cc1cc(CNc2ncc(C(=O)N3CCC34COC4)cn2)cc(OC(F)(F)F)c1` ?
6.00 to 7.00

What measured pIC50 goes with O=C(c1cnc(NCc2cc(OC(F)(F)F)cc(C3CC3)c2)nc1)N1CCC12CCCOC2 (single isomer, unassigned) [Example 121] ?
> 7.00

----------
# target: Autotaxin enzyme (ATX) (Homo sapiens, UniProt Q13822)
# Construct: purchased Echelon Biosciences, Inc. E-4000
# testSummary: In vitro ATX assay (enzymatic ATX inhibition, LPC 14:0 substrate, choline oxidase/HRP absorbance readout)
# Assay type: biochemical
# reportedConditions: 0.3 mM LPC 14:0, 37° C., 4 hours, absorbance 555 nm
Provide the recorded IC50 for the entries that follow.

Tell me reported IC50 for CC1CC(C)N1C(=O)c1cnc(NCc2cc(OC(F)(F)F)cc(C3CC3)c2)nc1 (centres unmarked) [Example 93] , tested with Autotaxin enzyme (ATX) (Homo sapiens, UniProt Q13822).
< 100 nM

Tell me reported IC50 for `CC(C)Oc1cc(CNc2ncc(C(=O)N3CCC34COC4)cn2)cc(N2CCC2)c1` , tested with Autotaxin enzyme (ATX) (Homo sapiens, UniProt Q13822).
100 to 1000 nM

Tell me reported IC50 for `O=C(c1cnc(NCc2cc(C3CC3)cc(C3CC3)c2)nc1)N1CCC12COC2` , tested with Autotaxin enzyme (ATX) (Homo sapiens, UniProt Q13822).
< 100 nM

Tell me reported IC50 for `O=C(c1cnc(NCc2cccc(OC(F)F)c2)nc1)N1CCC12COC2` , tested with Autotaxin enzyme (ATX) (Homo sapiens, UniProt Q13822).
≥ 1000 nM

Tell me reported IC50 for O=C(c1cnc(NCc2cc(OC(F)(F)F)cc(C3CC3)c2)nc1)N1CCC12CCCOC2 (single isomer, unassigned) [Example 122] , tested with Autotaxin enzyme (ATX) (Homo sapiens, UniProt Q13822).
< 100 nM

Tell me reported IC50 for `CC(C)c1cc(CNc2ncc(C(=O)N3CCCCC3)cn2)cc(OC(F)(F)F)c1` , tested with Autotaxin enzyme (ATX) (Homo sapiens, UniProt Q13822).
100 to 1000 nM

Tell me reported IC50 for `COC[C@H]1CCN1C(=O)c1cnc(NCc2cc(OC(F)(F)F)cc(C3CC3)c2)nc1` , tested with Autotaxin enzyme (ATX) (Homo sapiens, UniProt Q13822).
< 100 nM

Tell me reported IC50 for `O=C(c1cnc(NCc2cc(OC(F)(F)F)cc(C3CC3)c2)nc1)N1CC2(CCS2(=O)=O)C1` , tested with Autotaxin enzyme (ATX) (Homo sapiens, UniProt Q13822).
100 to 1000 nM

Tell me reported IC50 for `CCOc1cc(CNc2ncc(C(=O)N3CCC34COC4)cn2)cc(OC(F)(F)F)c1` , tested with Autotaxin enzyme (ATX) (Homo sapiens, UniProt Q13822).
< 100 nM

Tell me reported IC50 for `CCOc1cc(CNc2ncc(C(=O)N3CCC34COC4)cn2)cc(OCC)c1` , tested with Autotaxin enzyme (ATX) (Homo sapiens, UniProt Q13822).
< 100 nM

Tell me reported IC50 for CC(C)Oc1cc(CNc2ncc(C(=O)N3CCC3C(C)(C)O)cn2)cc(C2CC2)c1 (centres unmarked) , tested with Autotaxin enzyme (ATX) (Homo sapiens, UniProt Q13822).
< 100 nM

Tell me reported IC50 for CC(C)(O)C1CCN1C(=O)c1cnc(N[C@@H]2Cc3ccc(Cl)cc3C2)nc1 (some centres unmarked) , tested with Autotaxin enzyme (ATX) (Homo sapiens, UniProt Q13822).
< 100 nM

Tell me reported IC50 for CCc1ccc2c(c1)CC(Nc1ncc(C(=O)N3CCC34COC4)cn1)C2 (centres unmarked) , tested with Autotaxin enzyme (ATX) (Homo sapiens, UniProt Q13822).
100 to 1000 nM

Tell me reported IC50 for CS(=O)(=O)c1ccc2c(c1)CC(Nc1ncc(C(=O)N3CCC34COC4)cn1)C2 (centres unmarked) , tested with Autotaxin enzyme (ATX) (Homo sapiens, UniProt Q13822).
≥ 1000 nM

Tell me reported IC50 for `O=C(c1cnc(NCc2cc(Cl)ccc2Cl)nc1)N1CCC12COC2` , tested with Autotaxin enzyme (ATX) (Homo sapiens, UniProt Q13822).
100 to 1000 nM

Tell me reported IC50 for `O=C(c1cnc(NCc2cc(OC(F)(F)F)cc(C3CC3)c2)nc1)N1CC2(C1)CS(=O)(=O)C2` , tested with Autotaxin enzyme (ATX) (Homo sapiens, UniProt Q13822).
100 to 1000 nM

Tell me reported IC50 for O=C(c1cnc(NC2Cc3ccc(Cl)cc3C2)nc1)N1CCC1 (centres unmarked) , tested with Autotaxin enzyme (ATX) (Homo sapiens, UniProt Q13822).
< 100 nM

----------
pIC50: −log10 of the molar value.
readoutName: pIC50

Tell me reported pIC50 for `O=C(c1ccc(NCc2cccc(OC(F)(F)F)c2)nc1)N1CCC12COC2` , tested with Autotaxin enzyme (ATX) (Homo sapiens, UniProt Q13822).
≤ 6.00

Tell me reported pIC50 for O=C(c1cnc(NC2Cc3ccc(Cl)cc3C2)nc1)N1CCC1C(F)F (centres unmarked) , tested with Autotaxin enzyme (ATX) (Homo sapiens, UniProt Q13822).
> 7.00

Tell me reported pIC50 for CC1CC(C)N1C(=O)c1cnc(NCc2cc(OC(F)(F)F)cc(C3CC3)c2)nc1 (single isomer, unassigned) [Example 118] , tested with Autotaxin enzyme (ATX) (Homo sapiens, UniProt Q13822).
> 7.00

Tell me reported pIC50 for `CCOc1cc(CNc2ncc(C(=O)N3CCC34COC4)cn2)cc(C2CC2)c1` , tested with Autotaxin enzyme (ATX) (Homo sapiens, UniProt Q13822).
> 7.00

Tell me reported pIC50 for CC1(C)CCN1C(=O)c1cnc(NC2Cc3ccc(Cl)cc3C2)nc1 (centres unmarked) , tested with Autotaxin enzyme (ATX) (Homo sapiens, UniProt Q13822).
> 7.00

Tell me reported pIC50 for `CC(C)Oc1cc(CNc2ncc(C(=O)N3CCC34COC4)cn2)cc(OC(C)C)c1` , tested with Autotaxin enzyme (ATX) (Homo sapiens, UniProt Q13822).
> 7.00

Tell me reported pIC50 for COc1cc(CNc2ncc(C(=O)N3CCC3C)cn2)cc(OC)c1 (centres unmarked) , tested with Autotaxin enzyme (ATX) (Homo sapiens, UniProt Q13822).
≤ 6.00

Tell me reported pIC50 for `CC(C)c1cc(CNc2cnc(C(=O)N3CCC34COC4)cn2)cc(OC(F)(F)F)c1` , tested with Autotaxin enzyme (ATX) (Homo sapiens, UniProt Q13822).
> 7.00

----------
Below are IC50 values recorded for Autotaxin enzyme (ATX) (Homo sapiens, UniProt Q13822).

What measured IC50 goes with `N#Cc1cccc(CNc2ncc(C(=O)N3CCC34COC4)cn2)c1` ?
≥ 1000 nM

What measured IC50 goes with O=C(c1cnc(NC2Cc3ccc(F)cc3C2)nc1)N1CCC12COC2 (centres unmarked) ?
< 100 nM

What measured IC50 goes with `O=C(c1cnc(NCc2cccc(C(F)F)c2)nc1)N1CCC12COC2` ?
≥ 1000 nM

What measured IC50 goes with O=C(c1cnc(NCc2cc(OC(F)(F)F)cc(C3CC3)c2)nc1)N1CCC1C(F)F (centres unmarked) ?
< 100 nM

What measured IC50 goes with `COCC1CN(C(=O)c2cnc(NCc3cc(OC(F)(F)F)cc(C4CC4)c3)nc2)C1` ?
100 to 1000 nM

----------
Below are IC50 values recorded for Autotaxin enzyme (ATX) (Homo sapiens).

What measured IC50 goes with `O=C(c1cnc(N[C@H]2Cc3ccc(Br)cc3C2)nc1)N1CCC12COC2` ?
100 to 1000 nM

What measured IC50 goes with CN1CCC2(CC1)CCN2C(=O)c1cnc(NC2Cc3ccc(Cl)cc3C2)nc1 (centres unmarked) ?
< 100 nM

What measured IC50 goes with `O=C(c1cnc(NCc2cccc(OC(F)(F)F)c2)cn1)N1CCC12COC2` ?
100 to 1000 nM

What measured IC50 goes with `O=C(c1cnc(NCc2cc(OC(F)(F)F)cc(N3CCC3)c2)nc1)N1CCC12COC2` ?
< 100 nM

What measured IC50 goes with O=C(c1cnc(NCc2cc(OC(F)(F)F)cc(C3CC3)c2)nc1)N1CCC1C(F)(F)F (centres unmarked) ?
100 to 1000 nM

What measured IC50 goes with `O=C(c1ccc(NCc2cc(OC(F)(F)F)cc(C3CC3)c2)nc1)N1CCC12COC2` ?
< 100 nM

What measured IC50 goes with CC(C)Oc1ccc2c(c1)CC(Nc1ncc(C(=O)N3CCC34COC4)cn1)C2 (centres unmarked) ?
100 to 1000 nM

What measured IC50 goes with O=C(c1cnc(NCc2cc(OC(F)(F)F)cc(C3CC3)c2)nc1)N1CCC2COCC21 (centres unmarked) ?
< 100 nM
